assay: RP, Waters ACQUITY UPLC BEH C18, 100 × 2.1 mm, 1.7 µm, 0.1 mL/min, estimated dead time 2.2 min; A: water + 0.1% formic acid, pH 3; B: methanol + 0.1% formic acid, pH 3; gradient (min/%B) 0/5 5/5 25/95 25.1/100 35/100 35.1/5 45/5; details: stereoisomer not certain

Molecule | LC retention time
Cn1cnc2c(ncn2C2OC(CO)C(O)C2O)c1=N (stereo not given) | 10.6 min
O=C(O)c1cc(=O)c2cccc(O)c2[nH]1 | 13.9 min
CN1CCC[C@H]1c1cccnc1 [(S)-NICOTINE] | 2.66 min
NC(Cc1ccc(Oc2cc(I)c(O)c(I)c2)c(I)c1)C(=O)O (stereo not given) | 22.2 min
O=C(O)CCCCC1SCC2NC(=O)NC21 (stereo not given) | 15.5 min
